B1: library; a variant is named by its letters at N, in order (parent)
chain: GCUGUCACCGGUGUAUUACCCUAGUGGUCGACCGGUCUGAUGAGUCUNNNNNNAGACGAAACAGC

# Variants of: B1
# Assay Details: normalized RNA/DNA level without ligand (relative to sTRSVctl = 100) (log10 (% of sTRSVctl)); ligand: hypoxanthine (xanthine aptamer); higher = less ribozyme self-cleavage, higher mRNA level
# Condition Summary: HEK293T, reporter: mCherry (pCS4076), ligand present: no
# key: entry, value: normalized RNA/DNA level without ligand (log10)

INPUT: Endpoint output: normalized RNA/DNA level without ligand (log10) of GGUGCA . Value?
OUTPUT: 1.88

INPUT: And UAUGGG ?
OUTPUT: 1.41

INPUT: And CGGAAG ?
OUTPUT: 1.73

INPUT: And UUCGUG ?
OUTPUT: 1.7

INPUT: And GCUGCA ?
OUTPUT: 1.83

INPUT: And CAAGUU ?
OUTPUT: 1.94

INPUT: And AGAUGG ?
OUTPUT: 1.36

INPUT: And AGUGUU ?
OUTPUT: 1.81

INPUT: And GUGAAC ?
OUTPUT: 1.57

INPUT: And CGCGGU ?
OUTPUT: 1.87

INPUT: And GAACGC ?
OUTPUT: 1.59

INPUT: And AGUAAC ?
OUTPUT: 1.8

INPUT: And CAGGUG ?
OUTPUT: 1.77
